Listed next: entries and their corresponding IC50 (JRFL), pseudovirion entry.
TARGET_UNDER_TEST: HIV-1 gp41 (JRFL strain) (HIV-1 JRFL)
EXPERIMENT: cell-based or functional assay
Bridge positions count the residues as written; N and C are the ends. Square brackets hold non-standard residues; d marks the D form. Ends that are not written are not given here.
Kindly answer with a numeric value in µM, unit omitted.

BINDER	IC50 (JRFL), pseudovirion entry, µM
Ac-G[dA][dC][dD][dY][dP][dE][dW][dQ][dW][dL][dC][dA][dA]G[dK][dK]-NH2 (disulfide 3-12 (inferred)) [PIE7-GKK]	19.1
Ac-[dH][dP][dC][dD][dY][dP][dE][dW][dQ][dW][dL][dC][dK][dL]G[dK]-NH2 (disulfide 3-12 (inferred)) [PIE13]	1.47
G[dA][dC][dD][dY][dP][dE][dW][dQ][dW][dL][dC][dA][dA]G[dK] (disulfide 3-12 (inferred); also: dimer joined C- to C-terminus by PEG5 spacer on C-terminal Lys) [C5C(PIE7-GK)2]	0.203

Pending binder:
IN: Tell me measured IC50 (JRFL), pseudovirion entry for Ac-[dK]G[dA][dC][dD][dY][dP][dE][dW][dQ][dW][dL][dC][dA][dA]-NH2 (disulfide 4-13 (inferred)) [PIE7] please.
OUT: 24
